The reported numbers originate from ChEMBL document CHEMBL4831526.

- System: PANC-1
- assay-remarks: Cytotoxicity against human PANC-1 cells assessed as reduction in cell viability incubated for 72 hrs by Celltiter-Glo assay
- Format: functional, cell-based
- condition-set: PANC-1, 72 h
measured-attribute: pIC50
Hey, just a heads up that pIC50 is the negative log base 10 of the concentration in molar.

Observe how each entry below is paired with its result.
# smiles, pIC50
data = [
    ("C=C1C(=O)C2=C3[C@H](CC[C@H]4C(=C)C(=O)O[C@@H]4[C@@H]13)CC[C@@]21C(=O)C2=C3[C@H]1[C@H]1OC(=O)C(=C)[C@@H]1CC[C@@]3(O)CC[C@]21C(=O)C[C@H]2C(=C)CC[C@H]3C(=C)C(=O)O[C@@H]3[C@H]21", 5.60),
    ("C=C1C(=O)C2=C3[C@H]1[C@H]1OC(=O)C(=C)[C@@H]1CC[C@]3(O)CC[C@]21C(=O)C[C@H]2C(=C)CC[C@H]3C(=C)C(=O)O[C@@H]3[C@H]21", 5.66),
]

Input: I would be grateful if you could share the reported pIC50 for C=C1C(=O)O[C@@H]2[C@@H]3[C@@H](C[C@@]4(O)[C@]3(O)CC[C@]43C(=O)C[C@H]4C(=C)CC[C@H]5C(=C)C(=O)O[C@@H]5[C@H]43)C(=C)CC[C@@H]12 .
Output: 5.00

Input: How about this molecule: C=C1C(=O)C2=C3[C@H]1[C@H]1OC(=O)C(=C)[C@@H]1CC[C@@]3(O)CC[C@]21C(=O)C[C@H]2C(=C)CC[C@H]3C(=C)C(=O)O[C@@H]3[C@H]21
Output: 5.27

----------
Examples of compounds with documented IC50 follow.
- Test system: C6
- assay-remarks: Cytotoxicity against rat C6 cells assessed as reduction in cell viability incubated for 72 hrs by Celltiter-Glo assay
- Format: functional, cell-based
- condition-set: C6, 72 h
Give the value in nM but do not write nM after it.

# smiles, test-result
data = [
    ("C=C1C(=O)C2=C3[C@@H](CC[C@H]4C(=C)C(=O)O[C@@H]4[C@@H]13)CC[C@]21C(=O)C[C@H]2C(=C)CC[C@H]3C(=C)C(=O)O[C@@H]3[C@H]21", 6400),
    ("C=C1C(=O)C2=C3[C@H](CC[C@H]4C(=C)C(=O)O[C@@H]4[C@@H]13)CC[C@@]21C(=O)C2=C3[C@H]1[C@H]1OC(=O)C(=C)[C@@H]1CC[C@@]3(O)CC[C@]21C(=O)C[C@H]2C(=C)CC[C@H]3C(=C)C(=O)O[C@@H]3[C@H]21", 2100),
]

Kindly review the next compound as well.
Input: I would be grateful if you could share the reported IC50 for C=C1C(=O)C2=C3[C@H]1[C@H]1OC(=O)C(=C)[C@@H]1CC[C@]3(O)CC[C@]21C(=O)[C@H](C[C@@H]2C(=O)C[C@H]3C(=C)CC[C@H]4C(=C)C(=O)O[C@@H]4[C@@H]23)[C@H]2C(=C)CC[C@H]3C(=C)C(=O)O[C@@H]3[C@H]21 .
Output: 700

----------
- System: HeLa
- assay-remarks: Cytotoxicity against human HeLa cells assessed as reduction in cell viability incubated for 72 hrs by Celltiter-Glo assay
- Assay type: functional, cell-based
measured-attribute: pIC50
Hey, just a heads up that pIC50 is the negative log base 10 of the concentration in molar.

Input: I would be grateful if you could share the reported pIC50 for C=C1C(=O)C2=C3[C@H](CC[C@H]4C(=C)C(=O)O[C@@H]4[C@@H]13)CC[C@@]21C(=O)C2=C3[C@H]1[C@H]1OC(=O)C(=C)[C@@H]1CC[C@@]3(O)CC[C@]21C(=O)C[C@H]2C(=C)CC[C@H]3C(=C)C(=O)O[C@@H]3[C@H]21 .
Output: 5.15

Input: How about this compound: C=C1C(=O)O[C@@H]2[C@@H]3[C@@H](C[C@@]4(O)[C@]3(O)CC[C@]43C(=O)C[C@H]4C(=C)CC[C@H]5C(=C)C(=O)O[C@@H]5[C@H]43)C(=C)CC[C@@H]12
Output: 5.28
